system: LXRa homodimer (NR concentration 270 nM); assay: PBM binding z-score (relative to random genomic background probes); higher = stronger binding; sequences stand for … in GC…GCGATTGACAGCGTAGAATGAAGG
I'd appreciate it if you could supply PBM binding z-score values for the items below.
Could you respond with only the numeric value?

// query Complete the entry with PBM binding z-score for CCGACTGGGGCAAGTTTACCATAACGCACAGCCA
// result 0.16

// query Identify measured PBM binding z-score associated with GGAACGAGGGCTAAGTTGATAGCATCTGTCGACG
// result -0.392

// query Determine its reported PBM binding z-score: CCTGCTAGGTCATGGTCAGCAAATCTACAGTATG
// result 0.105

// query Identify PBM binding z-score associated with the sequence GGAACGAGGGCATTCGACTTGATAGCATGGCGAT
// result -0.634

// query Read the entry AGAACGAGGGCAAGGAGTTGATAGCACGGGTGGC and write its reported PBM binding z-score.
// result -0.479

// query State its PBM binding z-score: GCGAATGGGGCATCAGCAGGTTACCATAACTTAA
// result -0.232
